biological target: D(2) dopamine receptor (Homo sapiens, UniProt P14416); assay: Tested for binding affinity against dopamine receptor D2
Sequence (P14416 whole entry): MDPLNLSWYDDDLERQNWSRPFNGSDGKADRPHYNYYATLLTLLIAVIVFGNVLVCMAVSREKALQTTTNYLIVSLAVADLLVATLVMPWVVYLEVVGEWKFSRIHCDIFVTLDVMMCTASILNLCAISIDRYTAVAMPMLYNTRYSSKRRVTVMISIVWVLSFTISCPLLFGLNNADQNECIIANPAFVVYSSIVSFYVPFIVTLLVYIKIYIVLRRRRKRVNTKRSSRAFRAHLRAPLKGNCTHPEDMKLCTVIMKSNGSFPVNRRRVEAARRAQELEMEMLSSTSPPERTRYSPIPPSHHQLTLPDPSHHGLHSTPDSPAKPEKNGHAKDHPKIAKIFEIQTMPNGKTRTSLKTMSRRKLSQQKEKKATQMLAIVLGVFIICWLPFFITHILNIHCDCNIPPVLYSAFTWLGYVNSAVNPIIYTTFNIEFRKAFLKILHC

{"columns": ["COMPOUND", "Ki, nM"],
 "data": [
  ["O=C1NCN(c2ccccc2)C12CCN(CCCOc1ccc(F)cc1)CC2 [SPIRAMIDE]", 3]
]}

###

target: 5-hydroxytryptamine receptor 2C (Rattus norvegicus, UniProt P08909); assay: Tested for binding affinity against 5-hydroxytryptamine 1C receptor from rat frontal cortical regions using [3H]mesulergine as radioligand
Form field: Ki (one value per entry).

{"columns": ["COMPOUND", "Ki"],
 "data": [
  ["CN(C)CCCC(=O)c1ccc(F)cc1", "3.3 µM"],
  ["O=C1NCN(c2ccccc2)C12CCN(CCCc1ccccc1)CC2", "> 10 µM"],
  ["O=C(CCCN1CCCCC1)c1ccc(F)cc1 [PRIMAPERONE]", "> 10 µM"],
  ["O=C(NC1CCN(CCCOc2ccc(F)cc2)CC1)c1ccccc1", "> 10 µM"],
  ["O=C1NCN(c2ccccc2)C12CCN(CCCCc1ccccc1)CC2", "> 10 µM"],
  ["O=C(c1ccc(F)cc1)C1CCN(CCCOc2ccc(F)cc2)CC1", "0.335 µM"],
  ["NCCCOc1ccc(F)cc1", "> 10 µM"],
  ["O=C(Nc1ccccc1)C1CCN(CCCOc2ccc(F)cc2)CC1", "> 10 µM"],
  ["O=C(CCCN1CCC(NC(=O)c2ccccc2)CC1)c1ccc(F)cc1", "> 10 µM"],
  ["O=C1NCN(c2ccccc2)C12CCN(CCCCOc1ccccc1)CC2", "> 10 µM"],
  ["O=C1NCN(c2ccccc2)C12CCN(CCc1ccccc1)CC2", "6 µM"],
  ["CN(C)CCCOc1ccc(F)cc1", "> 10 µM"]
]}

###

biological target: Serotonin 2 (5-HT2) receptor (Rattus norvegicus) (UniProt P30994+P08909+P14842); experiment: Selectivity ratio, Ki against 5-HT1C versus 5-HT2; format: protein assay

{"columns": ["COMPOUND", "TGT", "Ratio"],
 "data": [
  ["O=C(Nc1ccccc1)C1CCN(CCCOc2ccc(F)cc2)CC1", "Serotonin 2 (5-HT2) receptor (Rattus norvegicus) (UniProt P30994+P08909+P14842)", "> 100"],
  ["O=C1NCN(c2ccccc2)C12CCN(CCCc1ccccc1)CC2", "Serotonin 2 (5-HT2) receptor (Rattus norvegicus) (UniProt P30994+P08909+P14842)", "> 30"],
  ["O=C(CCCN1CCCCC1)c1ccc(F)cc1 [PRIMAPERONE]", "Serotonin 2 (5-HT2) receptor (Rattus norvegicus) (UniProt P30994+P08909+P14842)", "> 70"],
  ["O=C1NCN(c2ccccc2)C12CCN(CCCOc1ccc(F)cc1)CC2 [SPIRAMIDE]", "Serotonin 2 (5-HT2) receptor (Rattus norvegicus) (UniProt P30994+P08909+P14842)", 2100],
  ["O=C1NCN(c2ccccc2)C12CCN(CCCOc1ccc([N+](=O)[O-])cc1)CC2", "Serotonin 2 (5-HT2) receptor (Rattus norvegicus) (UniProt P30994+P08909+P14842)", "> 10"],
  ["CN(c1ccccc1)C1CCN(CCCOc2ccc(F)cc2)CC1", "Serotonin 2 (5-HT2) receptor (Rattus norvegicus) (UniProt P30994+P08909+P14842)", 90],
  ["O=C1NCN(c2ccccc2)C12CCN(CCCOc1ccccc1)CC2", "Serotonin 2 (5-HT2) receptor (Rattus norvegicus) (UniProt P30994+P08909+P14842)", "> 2000"],
  ["COc1ccc(OCCCN2CCC3(CC2)C(=O)NCN3c2ccccc2)cc1", "Serotonin 2 (5-HT2) receptor (Rattus norvegicus) (UniProt P30994+P08909+P14842)", "> 10"],
  ["CN(C)CCCOc1ccc(F)cc1", "Serotonin 2 (5-HT2) receptor (Rattus norvegicus) (UniProt P30994+P08909+P14842)", "> 30"],
  ["O=C(NC1CCN(CCCOc2ccc(F)cc2)CC1)c1ccccc1", "Serotonin 2 (5-HT2) receptor (Rattus norvegicus) (UniProt P30994+P08909+P14842)", "> 140"],
  ["NCCCOc1ccc(F)cc1", "Serotonin 2 (5-HT2) receptor (Rattus norvegicus) (UniProt P30994+P08909+P14842)", "> 5"],
  ["O=C(CCCN1CCC(NC(=O)c2ccccc2)CC1)c1ccc(F)cc1", "Serotonin 2 (5-HT2) receptor (Rattus norvegicus) (UniProt P30994+P08909+P14842)", "> 140"],
  ["O=C(CCCN1CCC(Cc2ccccc2)CC1)c1ccc(F)cc1", "Serotonin 2 (5-HT2) receptor (Rattus norvegicus) (UniProt P30994+P08909+P14842)", 35],
  ["O=C(c1ccc(F)cc1)C1CCN(CCCOc2ccc(F)cc2)CC1", "Serotonin 2 (5-HT2) receptor (Rattus norvegicus) (UniProt P30994+P08909+P14842)", 40]
]}

###

Form field: Ki (one value per entry).
target: UniProt:P19327
Sequence (P19327 whole entry): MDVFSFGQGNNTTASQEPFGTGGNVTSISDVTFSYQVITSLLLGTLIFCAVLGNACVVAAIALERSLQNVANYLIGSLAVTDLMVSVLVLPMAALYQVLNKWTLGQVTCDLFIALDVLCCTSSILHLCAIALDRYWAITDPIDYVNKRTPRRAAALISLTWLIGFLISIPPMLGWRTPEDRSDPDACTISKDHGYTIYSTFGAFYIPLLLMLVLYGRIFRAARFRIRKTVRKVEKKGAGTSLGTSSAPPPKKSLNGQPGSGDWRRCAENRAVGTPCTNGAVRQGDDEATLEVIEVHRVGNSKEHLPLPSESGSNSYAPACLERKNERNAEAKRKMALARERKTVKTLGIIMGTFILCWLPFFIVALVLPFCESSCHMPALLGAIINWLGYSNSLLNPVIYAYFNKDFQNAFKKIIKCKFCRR

{"columns": ["MOLECULE", "CENSOR_SYMBOL", "Ki [nM]"],
 "data": [
  ["O=C1NCN(c2ccccc2)C12CCN(CCCOc1ccc([N+](=O)[O-])cc1)CC2", "=", 1160],
  ["O=C1NCN(c2ccccc2)C12CCN(CCCOc1ccccc1)CC2", "=", 75],
  ["CN(c1ccccc1)C1CCN(CCCOc2ccc(F)cc2)CC1", "=", 110],
  ["O=C(CCCN1CCCCC1)c1ccc(F)cc1 [PRIMAPERONE]", ">", 10000],
  ["O=C1NCN(c2ccccc2)C12CCN(CCCc1ccccc1)CC2", "=", 105],
  ["O=C(c1ccc(F)cc1)C1CCN(CCCOc2ccc(F)cc2)CC1", "=", 285],
  ["c1ccc(CCCCN2CCN(c3ccccc3)CC2)cc1", "=", 1],
  ["O=C(CCCN1CCC(Cc2ccccc2)CC1)c1ccc(F)cc1", "=", 180]
]}

###

target: Serotonin 2 (5-HT2) receptor (Rattus norvegicus) (UniProt P30994+P08909+P14842); assay: Selectivity ratio, Ki against 5-HT1C versus 5-HT2; assay type: protein assay

{"columns": ["STRUCTURE", "Ratio"],
 "data": [
  ["O=C1NCN(c2ccccc2)C12CCN(CCCCOc1ccccc1)CC2", "> 30"],
  ["O=C1NCN(c2ccccc2)C12CCN(CCCCc1ccccc1)CC2", "> 300"],
  ["CN(C)CCCC(=O)c1ccc(F)cc1", 40],
  ["Fc1ccc(OCCCN2CCC(Nc3ccccc3)CC2)cc1", 40],
  ["O=C1NCN(c2ccccc2)C12CCN(CCc1ccccc1)CC2", 10],
  ["O=C1NCN(c2ccccc2)C12CCN(CCCCc1ccc(F)cc1)CC2", 650]
]}

###

Molecular target: 5-hydroxytryptamine receptor 2C (Rattus norvegicus, UniProt P08909)
Sequence (P08909 whole entry): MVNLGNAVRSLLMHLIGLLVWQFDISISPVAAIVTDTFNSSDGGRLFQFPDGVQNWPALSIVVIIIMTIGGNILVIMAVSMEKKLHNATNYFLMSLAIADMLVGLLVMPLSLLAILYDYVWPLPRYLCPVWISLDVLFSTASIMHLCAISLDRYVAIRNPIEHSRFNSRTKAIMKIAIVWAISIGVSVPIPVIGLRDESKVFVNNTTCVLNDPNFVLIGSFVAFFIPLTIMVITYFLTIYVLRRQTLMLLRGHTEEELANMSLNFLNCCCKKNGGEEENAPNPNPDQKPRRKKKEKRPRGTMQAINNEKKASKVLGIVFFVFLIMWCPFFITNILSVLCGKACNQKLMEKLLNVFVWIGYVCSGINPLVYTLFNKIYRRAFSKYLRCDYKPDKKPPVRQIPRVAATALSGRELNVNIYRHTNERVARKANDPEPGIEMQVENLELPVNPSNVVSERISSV
pKi: −log10 of the molar value.
Form field: pKi (one value per entry).

{"columns": ["STRUCTURE", "pKi"],
 "data": [
  ["COc1ccc(OCCCN2CCC3(CC2)C(=O)NCN3c2ccccc2)cc1", "< 5.00"],
  ["CN(c1ccccc1)C1CCN(CCCOc2ccc(F)cc2)CC1", 5.54],
  ["Fc1ccc(OCCCN2CCC(Nc3ccccc3)CC2)cc1", 5.44],
  ["NCCCC(=O)c1ccc(F)cc1", "< 4.00"],
  ["O=C1NCN(c2ccccc2)C12CCN(CCCOc1ccccc1)CC2", "< 5.00"],
  ["O=C1NCN(c2ccccc2)C12CCN(CCCOc1ccc([N+](=O)[O-])cc1)CC2", "< 5.00"]
]}

###

target: Serotonin 2 (5-HT2) receptor (Rattus norvegicus, UniProt P30994+P08909+P14842); experiment: Tested for binding affinity against 5-hydroxytryptamine 2 receptor from rat frontal cortical regions using [3H]ketanserin as radioligand; assay type: protein assay
QUANTITY_NAME: log10 Ki (log10 of the value in µM)

{"columns": ["MOLECULE", "DATA_VALUE"],
 "data": [
  ["O=C(NC1CCN(CCCOc2ccc(F)cc2)CC1)c1ccccc1", -1.15],
  ["O=C(CCCN1CCCCC1)c1ccc(F)cc1", -0.85],
  ["O=C1NCN(c2ccccc2)C12CCN(CCCc1ccccc1)CC2", -0.64],
  ["COc1ccc(OCCCN2CCC3(CC2)C(=O)NCN3c2ccccc2)cc1", 0.00],
  ["O=C1NCN(c2ccccc2)C12CCN(CCCOc1ccc([N+](=O)[O-])cc1)CC2", -0.22],
  ["CN(c1ccccc1)C1CCN(CCCOc2ccc(F)cc2)CC1", -1.49],
  ["CN(C)CCCOc1ccc(F)cc1", -0.53],
  ["O=C1NCN(c2ccccc2)C12CCN(CCCCOc1ccccc1)CC2", -0.49],
  ["O=C1NCN(c2ccccc2)C12CCN(CCCOc1ccc(F)cc1)CC2 [SPIRAMIDE]", -2.70],
  ["O=C(Nc1ccccc1)C1CCN(CCCOc2ccc(F)cc2)CC1", -1.02],
  ["O=C1NCN(c2ccccc2)C12CCN(CCCCc1ccccc1)CC2", -1.52],
  ["O=C1NCN(c2ccccc2)C12CCN(CCc1ccccc1)CC2", -0.24],
  ["O=C(CCCN1CCC(Cc2ccccc2)CC1)c1ccc(F)cc1", -1.30],
  ["O=C(CCCN1CCC(NC(=O)c2ccccc2)CC1)c1ccc(F)cc1", -1.15],
  ["CN(C)CCCC(=O)c1ccc(F)cc1", -1.10],
  ["NCCCOc1ccc(F)cc1", 0.15],
  ["Fc1ccc(OCCCN2CCC(Nc3ccccc3)CC2)cc1", -1.06],
  ["O=C1NCN(c2ccccc2)C12CCN(CCCOc1ccccc1)CC2", -2.30],
  ["O=C1NCN(c2ccccc2)C12CCN(CCCCc1ccc(F)cc1)CC2", -2.30],
  ["O=C(c1ccc(F)cc1)C1CCN(CCCOc2ccc(F)cc2)CC1", -2.10]
]}
